Cited source for all entries: PubChem BioAssay (Tox21)

# assay procedure: qHTS assay to identify small molecule that activate the aryl hydrocarbon receptor (AhR) signaling pathway - cell viability counter screen (AID 743086); note: nearly all actives have a fitted effect of over 45% in size
# details: HepG2-AhR-luc viability, CellTiter-Fluor, 24 h; series mostly up to 70.3 µM
Inconclusive results are not listed. The source made the active and inactive calls. Calls come from the whole dose curve; as a rule, active = well fitted cell-killing curve with a large enough effect in the repeat runs; inconclusive = weak or mixed curves, or effect the other way; inactive = flat fitted curve, though single readings scatter.
Outcome codes: true (1) = active, false (0) = inactive

• COC(=O)C1=C(C)NC(C)=C(C(=O)OCC(C)C)C1c1ccccc1[N+](=O)[O-] (configuration not stated) = false (0)
• NNC(=O)c1cccc(C(=O)NN)c1 = false (0)
• Oc1cc2ccccc2c2ccccc12 = true (1)
• CCCCC(CC)CN=C(N)NC(N)=NCCCCCCN=C(N)NC(N)=NCC(CC)CCCC (configuration not stated) = true (1)
• CCC(N)(CO)CO = false (0)
• CCOC(=O)c1nc(C(Cl)(Cl)Cl)n(-c2ccc(Cl)cc2Cl)n1 = true (1)
• CSc1ccc2c(c1)C(N1CCN(C)CC1)Cc1ccccc1S2 (configuration not stated) = true (1)
